# System: Pseudomonas aeruginosa
# procedure_text: Antibacterial activity against Pseudomonas aeruginosa KB367 expressing IMP-1 assessed as inhibition of bacterial growth at 10 ug in presence of meropenem incubated overnight by paper disk method
# Assay type: functional
# details: read-out: IZ

- cpd_smiles: "CC/C=C/C1=C(c2ccc(O)c(O)c2)C(=O)OC1=O"
  uom: "mm"
  zone of inhibition at 10 µg/disc: 9
- cpd_smiles: "CCCCC1=C(c2ccc(O)c(O)c2)C(=O)OC1=O"
  uom: "mm"
  zone of inhibition at 10 µg/disc: 9
- cpd_smiles: "CC/C=C/C1=C(CCC(=O)OC)C(=O)OC1=O"
  uom: "mm"
  zone of inhibition at 10 µg/disc: 11
- cpd_smiles: "CC/C=C/C(C(=O)[O-])=C(\\CCC)C(=O)[O-].[Na+].[Na+]"
  uom: "mm"
  zone of inhibition at 10 µg/disc: 14
- cpd_smiles: "CCCC/C(C(=O)[O-])=C(/C(=O)[O-])c1ccc(O)c(O)c1.[Na+].[Na+]"
  uom: "mm"
  zone of inhibition at 10 µg/disc: 14
- cpd_smiles: "CCCCC(C(=O)N1CCCCC1)=C(C(=O)O)c1ccc(O)c(O)c1"
  uom: "mm"
  zone of inhibition at 10 µg/disc: 12

---

Measured zone of inhibition at 3 µg/disc, listed per entry for reference.
# Test system: Pseudomonas aeruginosa
# procedure_text: Antibacterial activity against Pseudomonas aeruginosa KB367 expressing IMP-1 assessed as inhibition of bacterial growth at 3 ug in presence of meropenem incubated overnight by paper disk method
# Format: functional
# details: read-out: IZ

- cpd_smiles: "CCCC/C(C(=O)[O-])=C(/C(=O)[O-])c1ccc(O)c(O)c1.[Na+].[Na+]"
  zone of inhibition at 3 µg/disc [mm]: 11
- cpd_smiles: "CC/C=C/C(C(=O)[O-])=C(\\CCC)C(=O)[O-].[Na+].[Na+]"
  zone of inhibition at 3 µg/disc [mm]: 7
- cpd_smiles: "CCCCC(C(=O)N1CCCCC1)=C(C(=O)O)c1ccc(O)c(O)c1"
  zone of inhibition at 3 µg/disc [mm]: 12
- cpd_smiles: "CC/C=C/C1=C(CCC(=O)OC)C(=O)OC1=O"
  zone of inhibition at 3 µg/disc [mm]: 9

---

# procedure_text: Inhibition of bacterial Metallo-beta-lactamase IMP-1 using nitrocefin as substrate pre-incubated for 15 mins followed by substrate addition by microplate reader
# Design: species or system Bacteria

- cpd_smiles: "CC/C=C/C(C(=O)[O-])=C(\\CCC)C(=O)[O-].[Na+].[Na+]"
  IC50 / µg/mL: 2.2
- cpd_smiles: "CCCCC(C(=O)N1CCCCC1)=C(C(=O)O)c1ccc(O)c(O)c1"
  IC50 / µg/mL: 0.55
- cpd_smiles: "CCCC/C(C(=O)[O-])=C(/C(=O)[O-])c1ccc(O)c(O)c1.[Na+].[Na+]"
  IC50 / µg/mL: 0.56
